# System: SK-OV-3 ovarian
# Assay procedure: NCI tumour cell line growth inhibition, 48 h
Exercise: state measured TGI for each of the compounds provided.

> print(dat)
                                   compound  observation.type     value
1  CCOC(=O)C1=C(C)N(c2ccc(C)cc2)C2(O)C=CC(=O)C3=C(O)c4ccccc4C(=O)C312 (stereo unspecified)               TGI  > 100 µM
2  COC(=O)C1=C(c2cc(OC)c(OC)c(OC)c2)O[C@H](c2ccc3c(c2)OCO3)[C@H]1COC(C)=O               TGI   52.1 µM
3  COc1cc(C(=O)C/C(CCC(=O)Nc2ccc(Cl)cc2Cl)=N/Nc2nnc(C)n2N)ccc1O               TGI  > 100 µM
4  COc1cc(S(=O)(=O)N/N=C/c2cc(Br)c(O)c(OC)c2)c(OC)cc1NC(C)=O               TGI  > 100 µM
5              Cc1ccc(S(=O)(=O)c2ccsc2N)cc1               TGI  > 100 µM

Each of the following entries comes with a recorded value; kindly state TGI for each.
1. c1ccc(COc2cccc3cccnc23)cc1
2. O=C(NCCCCNCCCNC(=O)OCc1ccccc1)OCc1ccccc1
3. COc1ccccc1N1C(=O)/C(=C\c2cccc(Oc3ccccc3)c2)S(=O)(=O)C1c1ccccc1 (stereo unspecified)
4. O=C(O)CCCc1ccc2c(c1)CC1(C2)Cc2ccc(CCCC(=O)O)cc2C1
5. Oc1ccc2ccccc2c1OCc1nnc(CCCCCCCCc2nnc(COc3c(O)ccc4ccccc34)o2)o1
6. COC(=O)C1=C(C)NC2(C)OC(C)(O)C(C(C)=O)C12C(C)=O (stereo unspecified)
7. CC1(C)O[C@@H](CP(c2cccc3ccccc23)c2cccc3ccccc23)[C@H](CP(c2cccc3ccccc23)c2cccc3ccccc23)O1

1. > 100 µM
2. > 100 µM
3. > 100 µM
4. > 100 µM
5. > 100 µM
6. 85.8 µM
7. > 100 µM
